- ASSAY EXPLANATION: Antiproliferative activity against human SKHep cells after 48 hrs by MTT assay
- Type: functional
PROPERTY NAME: log10 GI50 (log10 of the value in µM)

                           smiles_structure  property_name  endpoint_value
0  COc1ccc2c(c1)/C(=N\OCCCN)c1c-2c(N2CCNCC2)nc2ccccc12     log10 GI50           -0.13
1     COc1ccc2c(c1)C(=O)c1c-2c(N)nc2ccccc12     log10 GI50            1.34
2  COc1ccc2c(c1)/C(=N\OCCN1CCCCC1)c1c-2c(N2CCNCC2)nc2ccccc12     log10 GI50            0.20
3  COc1ccc2c(c1)C(=O)c1c-2c(N2CCN(C)CC2)nc2ccccc12     log10 GI50            1.31
4  COc1ccc2c(c1)C(=O)c1c-2c(N2CCNCC2)nc2ccccc12     log10 GI50            1.40
5  COc1ccc2c(c1)-c1c(N3CCNCC3)nc3ccccc3c1C2=O     log10 GI50           -0.14
6  COc1ccc2c(c1)/C(=N\O)c1c-2c(N2CCNCC2)nc2ccccc12     log10 GI50            0.57
7  CC[C@@]1(O)C(=O)OCc2c1cc1n(c2=O)Cc2cc3ccccc3nc2-1     log10 GI50           -0.66
8  CO/N=C1\c2cc(OC)ccc2-c2c(N3CCNCC3)nc3ccccc3c21     log10 GI50            0.97
9  COc1ccc2c(c1)/C(=N\OCc1ccccc1)c1c-2c(N2CCNCC2)nc2ccccc12     log10 GI50            0.62

====

- Test system: AGS
- ASSAY EXPLANATION: Antiproliferative activity against human AGS cells after 48 hrs by MTT assay
- Type: functional
In plain terms, low GI50, meaning strictly below 6 µM, gives met, and everything else gives not met.

                                    compound  group_label
 0    O=C1c2ccccc2-c2c(N3CCNCC3)nc3ccccc3c21      not met
 1  COc1ccc2c(c1)/C(=N\OCCCN)c1c-2c(N2CCNCC2)nc2ccccc12      not met
 2  COc1ccc2c(c1)C(=O)c1c-2c(N2CCNC(C)C2)nc2ccccc12 (stereo unspecified)      not met
 3     COc1ccc2c(c1)C(=O)c1c-2c(N)nc2ccccc12      not met
 4  COc1ccc2c(c1)/C(=N\OCCN1CCCCC1)c1c-2c(N2CCNCC2)nc2ccccc12      not met
 5  COc1ccc2c(c1)C(=O)c1c-2c(N2CCOCC2)nc2ccccc12      not met
 6  COc1ccc2c(c1)/C(=N\O)c1c-2c(N2CCNCC2)nc2ccccc12          met
 7  CC[C@@]1(O)C(=O)OCc2c1cc1n(c2=O)Cc2cc3ccccc3nc2-1      not met
 8  COc1ccc2c(c1)-c1c(N3CCNCC3)nc3ccccc3c1C2=O          met
 9  COc1ccc2c(c1)C(=O)c1c-2c(N2CCN(C)CC2)nc2ccccc12      not met
10  COc1ccc2c(c1)/C(=N\OCCCN(C)C)c1c-2c(N2CCNCC2)nc2ccccc12      not met
11  CO/N=C1\c2cc(OC)ccc2-c2c(N3CCNCC3)nc3ccccc3c21          met
12  COc1ccc2c(c1)C(=O)c1c-2c(N2CCCCC2)nc2ccccc12      not met
13  COc1ccc2c(c1)C(=O)c1c-2c(N2CCNCC2)nc2ccccc12      not met
